Molecular target: DCAF1 WD40 domain (residues 1077-1390) (Homo sapiens, UniProt Q9Y4B6)
Construct: DCAF1 WD40 domain (residues 1077-1390)
Sequence (Q9Y4B6 1077-1390): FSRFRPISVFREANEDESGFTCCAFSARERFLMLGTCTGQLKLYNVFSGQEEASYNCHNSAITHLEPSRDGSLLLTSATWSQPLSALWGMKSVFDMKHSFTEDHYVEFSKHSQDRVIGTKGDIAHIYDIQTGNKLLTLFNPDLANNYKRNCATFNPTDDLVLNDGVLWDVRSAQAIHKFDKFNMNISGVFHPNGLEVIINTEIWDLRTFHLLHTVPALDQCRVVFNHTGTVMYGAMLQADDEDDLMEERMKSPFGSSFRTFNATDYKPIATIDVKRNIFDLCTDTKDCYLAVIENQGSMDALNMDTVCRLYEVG
Experiment: DCAF1 binding assay by SPR (Biacore 8K+), DCAF1-3 KD
Details: 25 °C, read-out: DCAF1-3 SPR (KD)
pKd: −log10 of the molar value.
measurement.label: pKd

Consider the following illustrative entries.
NC(=O)c1ccc(N2CCC[C@@H](Nc3cc(N4CCOCC4)ccn3)C2)cc1 [I-769]    < 3.70
NC(=O)C[C@H](NC(=O)c1n[nH]c2c1CNCC2)c1cccc(Cl)c1 [I-298]    < 3.70
O=C(c1cc(N2CCCCC2)ccn1)[C@@H]1CCCN(c2cccc(F)c2)C1 [I-612]    < 3.70
Fc1cccc(N2CCC[C@@H](Nc3cc(N4CCCCC4)ccn3)C2)c1 [I-503]    > 5.00
NC(=O)C[C@H](NC(=O)c1cn[nH]c1-c1ccccc1F)c1ccccn1 [I-340]    < 3.70
CN1CC=CC[C@@H]1CC(=O)N[C@@H](CC(N)=O)c1cccc(Cl)c1 [I-442]    < 3.70
O=C1C[C@@H]([C@@H](NC(=O)c2cn[nH]c2-c2ccccc2F)c2cccc(Cl)c2)CN1 [I-560]    < 3.70
C=CC(=O)NCCCCC1CCN(c2ccnc(N3CC[C@@H]4[C@H]3CCCN4c3cccc(F)c3)c2)CC1 [I-852]    > 5.00

GET pKd where system = DCAF1 WD40 domain (residues 1077-1390) (Homo sapiens, UniProt Q9Y4B6) and item = Cc1sc2c(c1C)C(c1ccc(Cl)cc1)=N[C@@H](CC(=O)NCCOCCOCCOCCOCCOCCOCC(=O)c1[nH]cc(C(=O)N[C@@H](CC(N)=O)c3cccc(Cl)c3)c1-c1ccccc1F)c1nnc(C)n1-2 [I-898] > 5.00

Using DCAF1 WD40 domain (residues 1077-1390) (Homo sapiens, UniProt Q9Y4B6) as the test system, report measured pKd of CCCCCCC[C@H]1CCCN(c2ccnc(N3CC[C@@H]4[C@H]3CCCN4c3cccc(F)c3)c2)C1 [I-727] . < 3.70

Give pKd; test system DCAF1 WD40 domain (residues 1077-1390) (Homo sapiens, UniProt Q9Y4B6); molecule NC(=O)C[C@H](NC(=O)c1cn[nH]c1-c1ncccc1F)c1cccc(Cl)c1 [I-357] < 3.70

Provide the reported pKd (system: DCAF1 WD40 domain (residues 1077-1390) (Homo sapiens, UniProt Q9Y4B6)) for CC(C)n1ncc(C(=O)N[C@@H](CC(N)=O)c2cccc(Cl)c2)c1-c1ccccc1F [I-134] 3.70 to 4.00

Report its pKd with DCAF1 WD40 domain (residues 1077-1390) (Homo sapiens, UniProt Q9Y4B6) as the test system: Cc1ccc(-c2[nH]ncc2C(=O)N[C@@H](CC(N)=O)c2cccc(Cl)c2)cc1 [I-103] > 5.00
